Values from patent US20130090329A1

Listed below: Number of individuals with delta PANSS ≧0% (worsening symptoms) values for each entry.
Tested on: patients suffering from schizophrenia and related disorders
Assay: CATIE study: worsening of symptoms (LOCF delta PANSS ≧0%) by OPRP status
Type: in vivo, human
Settings: OPRP Positive; LOCF
Format: numeric value only, no unit, no commentary.

Consider the worked cases shown below.
O=C1Cc2cc(CCN3CCN(c4nsc5ccccc45)CC3)c(Cl)cc2N1 [Ziprasidone] | 4
OCCN1CCN(CCCN2c3ccccc3Sc3ccc(Cl)cc32)CC1 [Perphenazine] | 3
OCCOCCN1CCN(C2=Nc3ccccc3Sc3ccccc32)CC1 [Quetiapine] | 9

Please look up its Number of individuals with delta PANSS ≧0% (worsening symptoms): Cc1cc2c(s1)Nc1ccccc1N=C2N1CCN(C)CC1 [Olanzapine]
18

Now this one: Cc1nc2n(c(=O)c1CCN1CCC(c3noc4cc(F)ccc34)CC1)CCCC2 [Risperidone]
7

###

System: patients suffering from schizophrenia and related disorders
Assay: CATIE study: categorical responders (change in total PANSS ≦−10%, LOCF) by OPRP status
Format: in vivo, human
Settings: OPRP Negative
Given measured Number of individuals with change in total PANSS ≦−10% (responders), output label 1 if it is greater than or equal to 40 and label 0 if not.

Cc1nc2n(c(=O)c1CCN1CCC(c3noc4cc(F)ccc34)CC1)CCCC2 | label 1
OCCOCCN1CCN(C2=Nc3ccccc3Sc3ccccc32)CC1 | label 1
O=C1Cc2cc(CCN3CCN(c4nsc5ccccc45)CC3)c(Cl)cc2N1 | label 0

Please indicate if the recorded Number of individuals with change in total PANSS ≦−10% (responders) for Cc1cc2c(s1)Nc1ccccc1N=C2N1CCN(C)CC1 meets or exceeds 40.
label 1
